These entries and their values trace back to patent US10125100B2.

assay_explanation: Solubility in fasted-state simulated colonic fluid (FaSSCoF)
Type: physicochemical
test_parameters: 24 h, pH 6.5
Structures can show the parent of a compound that is named as a salt.
recorded_metric: pH 6.5 FaSSCoF Solubility, Run 2

Reference set (2 entries):
COc1cc(Nc2cc(Oc3ccc(NC(=O)Nc4cc(C(C)(C)C)cc(NS(C)(=O)=O)c4OC)c4ccccc34)ccn2)ccc1P(C)(=O)O [44 (ammonium salt)]
>2.4 mg/mL
COc1cc(Nc2cc(Oc3ccc(NC(=O)Nc4cc(C(C)(C)C)cc(NS(C)(=O)=O)c4OC)c4ccccc34)ccn2)ccc1C(=O)NCCOCCOCCOP(=O)(O)O [19 (sodium salt)]
>4.7 mg/mL

Prompt line: Given COc1cc(Nc2cc(Oc3ccc(NC(=O)Nc4cc(C(C)(C)C)cc(NS(C)(=O)=O)c4OC)c4ccccc34)ccn2)ccc1P(C)(=O)O [44 (sodium salt)] , respond with its pH 6.5 FaSSCoF Solubility, Run 2.
Response line: >5.5 mg/mL
